Molecular target: Adenosine receptor A3 (Homo sapiens)
Experiment: In vitro inhibitory activity against human Adenosine A3 receptor at 10e-5 M
Catalogue of inhibition readings, one per entry.
Attribute Measured: inhibition (%)

[[record]]
molecule = "O=C(NCCc1c[nH]c2ccc(OCc3ccccc3)cc12)c1ccco1"
unit_info = "%"
test_value = 70

[[record]]
molecule = "Cc1ccc(N(CC(=O)N/N=C/c2ccccc2O)S(=O)(=O)c2ccccc2)cc1"
unit_info = "%"
test_value = 65

[[record]]
molecule = "CCSc1nnc2c(n1)OC(c1ccc(-c3ccc(Cl)cc3)o1)Nc1ccccc1-2 (stereo not given)"
unit_info = "%"
test_value = 60

[[record]]
molecule = "CC(NC(=O)OCc1ccccc1)C(=O)Oc1cc(O)c2c(=O)cc(-c3ccccc3)oc2c1 (stereo not given)"
unit_info = "%"
test_value = 60

[[record]]
molecule = "COc1ccc(N(CC(=O)Nc2cccc(Cl)c2C)S(=O)(=O)c2ccccc2)cc1"
unit_info = "%"
test_value = 65


###

Target: Adenosine receptor A3 (Homo sapiens, UniProt P0DMS8)
Sequence (P0DMS8 whole entry): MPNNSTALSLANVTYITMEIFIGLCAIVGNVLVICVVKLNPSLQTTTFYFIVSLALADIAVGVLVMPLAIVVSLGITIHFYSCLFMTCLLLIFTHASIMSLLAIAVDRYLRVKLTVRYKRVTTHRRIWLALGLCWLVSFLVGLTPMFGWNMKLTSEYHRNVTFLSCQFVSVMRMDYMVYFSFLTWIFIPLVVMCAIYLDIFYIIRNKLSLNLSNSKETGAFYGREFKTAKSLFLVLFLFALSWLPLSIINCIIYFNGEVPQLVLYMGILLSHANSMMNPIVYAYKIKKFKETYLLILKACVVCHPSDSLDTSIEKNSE
pKi: −log10 of the molar value.
Attribute Measured: pKi

[[record]]
compound = "CCOC(=O)CNC(c1ccccc1)c1cc(Br)ccc1NC(=O)c1ccccc1 (configuration not stated)"
test_value = 5.51

[[record]]
compound = "CCOC(=O)c1c(NC(=O)Cc2ccccc2)sc2c1CCN(C(=O)OCC)C2"
test_value = 6.22


###

# IC50 annotations
Target: Adenosine receptor A3 (Homo sapiens)
Assay: Inhibition of [35S]GTP-gamma-S, binding stimulated by 20 uM 5''-N-ethyluronamidoadenosine (NECA) in membranes of HEK293 cells expressing human Adenosine A3 receptor
Assay type: functional, cell membranes
Attribute Measured: IC50 (µM)

[[record]]
compound = "COc1ccc(-c2csc(NC3OC(=O)c4c3ccc(OC)c4OC)n2)cc1 (configuration not stated)"
system_tested = "Adenosine receptor A3 (Homo sapiens)"
attribute_measured = "IC50"
test_value = 0.255

[[record]]
compound = "CCOC(=O)c1c(NC(=O)Cc2ccccc2)sc2c1CCN(C(=O)OCC)C2"
system_tested = "Adenosine receptor A3 (Homo sapiens)"
attribute_measured = "IC50"
test_value = 0.186


###

Target: Adenosine receptor A3 (Homo sapiens)
Sequence (P0DMS8 whole entry): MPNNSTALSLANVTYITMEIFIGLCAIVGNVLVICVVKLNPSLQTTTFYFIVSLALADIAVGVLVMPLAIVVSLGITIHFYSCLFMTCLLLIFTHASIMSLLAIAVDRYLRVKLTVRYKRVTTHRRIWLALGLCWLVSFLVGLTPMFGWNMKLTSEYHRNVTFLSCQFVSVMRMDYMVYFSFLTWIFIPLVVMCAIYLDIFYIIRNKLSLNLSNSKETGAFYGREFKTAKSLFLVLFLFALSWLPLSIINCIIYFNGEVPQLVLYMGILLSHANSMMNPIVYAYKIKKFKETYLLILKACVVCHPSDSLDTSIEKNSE
Assay: Inhibition of [35S]GTP-gamma-S, binding stimulated by 5 uM 5''-N-ethyluronamidoadenosine (NECA) in membranes of HEK293 cells expressing human Adenosine A3 receptor
Assay type: functional, cell membranes
Attribute Measured: IC50 (nM)

[[record]]
compound = "CCOC(=O)CNC(c1ccccc1)c1cc(Br)ccc1NC(=O)c1ccccc1 (stereo unspecified)"
unit_info = "nM"
test_value = 407


Where do these numbers come from? They come from ChEMBL document CHEMBL1133025.
